Exercise: for every item that follows, state its recorded self-cleavage kobs at 2500 uM GlcN6P.
B1: glmS ribozyme (parent)
chain: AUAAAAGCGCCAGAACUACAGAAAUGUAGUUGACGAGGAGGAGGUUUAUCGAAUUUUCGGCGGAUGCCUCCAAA

Variants of: B1
Test: self-cleavage kobs at 2500 uM GlcN6P; higher = faster cleavage; RNA array
Conditions: with glucosamine-6-phosphate
Variants at the floor of the assay were thinned out.
Give just the number in s⁻¹; leave the unit off.

Record A39C U46C . Reported self-cleavage kobs at 2500 uM GlcN6P: 0.00122

self-cleavage kobs at 2500 uM GlcN6P reported for this variant G13U C16G G29A A39G : 0.000286

Query A12G A53U U55G yields self-cleavage kobs at 2500 uM GlcN6P of 0.000166

For this variant ( U49G U69G ), measured self-cleavage kobs at 2500 uM GlcN6P is 9.67e-05

Recorded result, A12U G32A , self-cleavage kobs at 2500 uM GlcN6P: 0.000498

Entry A14C C16U C68G ; self-cleavage kobs at 2500 uM GlcN6P = 9.4e-05

Memo: A42C C67A , reported self-cleavage kobs at 2500 uM GlcN6P: 5.66e-05

Value of self-cleavage kobs at 2500 uM GlcN6P reported for the variant U30A U46G A53U is 0.000335

The measured self-cleavage kobs at 2500 uM GlcN6P associated with A6U C61G C67A reads 0.00149

Per the record, A6U C71U has self-cleavage kobs at 2500 uM GlcN6P of 0.000149

Please fill in: self-cleavage kobs at 2500 uM GlcN6P reported for A14U G26A C68G = 4.16e-05

Notebook: C58A U65G , self-cleavage kobs at 2500 uM GlcN6P read as 4.93e-05

The value of self-cleavage kobs at 2500 uM GlcN6P measured for the variant A15C U30A C67A turned out to be 0.0013

Short answer for U65C C71A : self-cleavage kobs at 2500 uM GlcN6P was 8.23e-05

In plain terms, G29C U45G has a documented self-cleavage kobs at 2500 uM GlcN6P of 0.000159

Kindly note the recorded self-cleavage kobs at 2500 uM GlcN6P for C16G U55C , which is 0.000702

The variant C50G A53C U54A U69A showed self-cleavage kobs at 2500 uM GlcN6P equal to 0.000283

Noted for U47A A53U : its self-cleavage kobs at 2500 uM GlcN6P reads 0.00324

Record A39C U56G , field self-cleavage kobs at 2500 uM GlcN6P: 0.00125

Input C10A C61G C67G C71G . Output self-cleavage kobs at 2500 uM GlcN6P: 0.000167

Short answer for G29A G40A A64G : self-cleavage kobs at 2500 uM GlcN6P was 0.000112

Looking up A33U C70U , I found its self-cleavage kobs at 2500 uM GlcN6P recorded as 5.5e-05

Data origin, for the record: the supplement of paper PMC7125110
